Tested on: 926638-142-R-J1-PDC complex spheroid viability
Test Details: Anticancer human tumor 926638-142-R-J1-PDC patient-derived endometrial carcinoma cell line growth inhibition [POLQ]
Protocol Conditions: second compound 0.0316 µM; first compound 3.16 µM; hits give low values
Protocol: Multicellular complex tumor spheroid response to Polymerase (POL) inhibitors (novobiocin, ART-558, RP6685) in combination with a variety of drugs and investigational agents in selected tumor cell lines The POL inhibitors (novobiocin, ART-558, and RP6685) were evaluated both individually and in combination with standard of care and investigational anticancer small molecules within a complex spheroid model of solid tumors. . […]
Flag rule - viability, T/C less than 70% flags Criterion met; the remaining entries get Criterion not met.

Compound	Answer Label
CCc1cc2c(N3CCc4c(cc(Cn5ccnc5)cc4-c4cn(C)nc4C(F)(F)F)C3=O)ccnc2c(OC)n1 + Cc1cccc(N(C)C(=O)C2C(O)CCN2c2nc(C)cc(C(F)(F)F)c2C#N)c1	Criterion met

Criterion: viability, T/C strictly below 70%. Is it met by C=CC(=O)N1CCN(c2nc(=O)n(-c3c(C)ccnc3C(C)C)c3nc(-c4c(O)cccc4F)c(F)cc23)C(C)C1 (stereo not drawn) + COC1C(OC(N)=O)C(O)C(Oc2ccc3c(O)c(NC(=O)c4ccc(O)c(CC=C(C)C)c4)c(=O)oc3c2C)OC1(C)C ? Criterion met

Threshold test, viability, T/C < 70%: CC1COCCN1c1cc(C2(O)CC3CCC(C2)O3)c2cnn(-c3ccn[nH]3)c2n1 (stereo not drawn) + Nc1ccc(C#CCN(C(=O)Cc2ncc(C(F)(F)F)cc2C(F)(F)F)c2ccc(F)cc2)nn1 Criterion met

Just wondering, is viability, T/C of CC1COCCN1c1cc(-c2ccnn2C)c2ccnc(-c3ccn[nH]3)c2n1 (stereo not drawn) + Cc1cccc(N(C)C(=O)C2C(O)CCN2c2nc(C)cc(C(F)(F)F)c2C#N)c1 below 70%? Criterion met

---

Test system: 926638-142-R-J1-PDC complex spheroid viability
Test Details: Anticancer human tumor 926638-142-R-J1-PDC cell line growth inhibition [POLQ];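 further: spheroids exposed to drugs for one week before readout; percent viability relative to DMSO vehicle control wells set as 100%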
Protocol Conditions: second compound 1 µM; first compound 0.316 µM; hits give low values
Procedure: Multicellular complex tumor spheroid response to Polymerase (POL) inhibitors (novobiocin, ART-558, RP6685) in combination with a variety of drugs and investigational agents in selected tumor cell lines The POL inhibitors (novobiocin, ART-558, and RP6685) were evaluated both individually and in combination with standard of care and investigational anticancer small molecules within a complex spheroid model of solid tumors. . […]
Response field label takes rule met when viability, T/C is strictly below 80% and rule not met in all other cases.

API: query returns whether the molecule falls strictly under 80% in viability, T/C. Query: COc1cccc(OCCCN)c1-c1cc(Nc2cnc(C#N)cn2)n[nH]1 + Nc1ccc(C#CCN(C(=O)Cc2ncc(C(F)(F)F)cc2C(F)(F)F)c2ccc(F)cc2)nn1 rule met

Is the reported viability, T/C for CNCc1ccc(-c2[nH]c3cc(F)cc4c3c2CCNC4=O)cc1 + Cc1cccc(N(C)C(=O)C2C(O)CCN2c2nc(C)cc(C(F)(F)F)c2C#N)c1 strictly below 80%? rule not met

Please let me know if O=c1[nH]cc(F)c(=O)[nH]1 + COC1C(OC(N)=O)C(O)C(Oc2ccc3c(O)c(NC(=O)c4ccc(O)c(CC=C(C)C)c4)c(=O)oc3c2C)OC1(C)C shows viability, T/C below 80%. rule not met

I wonder whether O=C(Nc1ccc(O)c(NS(=O)(=O)c2ccc(F)cc2)c1)c1ccc(-c2ccccc2)cc1 + Cc1cccc(N(C)C(=O)C2C(O)CCN2c2nc(C)cc(C(F)(F)F)c2C#N)c1 has viability, T/C below 80%. Can you tell? rule not met

Is viability, T/C strictly under 80% for the entry O=C(Nc1ccc(O)c(NS(=O)(=O)c2ccc(F)cc2)c1)c1ccc(-c2ccccc2)cc1 + COC1C(OC(N)=O)C(O)C(Oc2ccc3c(O)c(NC(=O)c4ccc(O)c(CC=C(C)C)c4)c(=O)oc3c2C)OC1(C)C ? rule not met

Report whether reported viability, T/C is lower than 80% (strictly) for CC1COCCN1c1cc(C2(S(C)(=N)=O)CC2)nc(-c2ccnc3[nH]ccc23)n1 (stereo not given) + COC1C(OC(N)=O)C(O)C(Oc2ccc3c(O)c(NC(=O)c4ccc(O)c(CC=C(C)C)c4)c(=O)oc3c2C)OC1(C)C rule not met

---

System: 926638-142-R-J1-PDC complex spheroid viability
Test Details: Anticancer human tumor 926638-142-R-J1-PDC cell line growth inhibition [POLQ];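 further: spheroids exposed to drugs for one week before readout; percent viability relative to DMSO vehicle control wells set as 100%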
Protocol Conditions: second compound 0.316 µM; first compound 0.0316 µM; hits give low values
Property: viability, T/C (%)
# value in %; strip the unit string

Some solved cases for reference:
Compound	Measurement Target	viability, T/C / %
Cn1ncnc1[C@H]1c2n[nH]c(=O)c3cc(F)cc(c23)N[C@@H]1c1ccc(F)cc1 + Nc1ccc(C#CCN(C(=O)Cc2ncc(C(F)(F)F)cc2C(F)(F)F)c2ccc(F)cc2)nn1	926638-142-R-J1-PDC complex spheroid viability	84.9
CCc1cc2c(N3CCc4c(cc(Cn5ccnc5)cc4-c4cn(C)nc4C(F)(F)F)C3=O)ccnc2c(OC)n1 + Nc1ccc(C#CCN(C(=O)Cc2ncc(C(F)(F)F)cc2C(F)(F)F)c2ccc(F)cc2)nn1	926638-142-R-J1-PDC complex spheroid viability	88.8
CC1COCCN1c1cc(C2(S(C)(=N)=O)CC2)nc(-c2ccnc3[nH]ccc23)n1 (stereo not given) + Cc1cccc(N(C)C(=O)C2C(O)CCN2c2nc(C)cc(C(F)(F)F)c2C#N)c1	926638-142-R-J1-PDC complex spheroid viability	107

Sure, the documented viability, T/C for COc1ccc([C@@H](O)c2cc(-c3ncnc4cc(N5CCOCC5)ccc34)c(F)cc2Cl)nn1 + COC1C(OC(N)=O)C(O)C(Oc2ccc3c(O)c(NC(=O)c4ccc(O)c(CC=C(C)C)c4)c(=O)oc3c2C)OC1(C)C is 106

Record O=C(Nc1ccc(O)c(NS(=O)(=O)c2ccc(F)cc2)c1)c1ccc(-c2ccccc2)cc1 + Nc1ccc(C#CCN(C(=O)Cc2ncc(C(F)(F)F)cc2C(F)(F)F)c2ccc(F)cc2)nn1 . Reported viability, T/C: 114

---

Tested on: 926638-142-R-J1-PDC complex spheroid viability
Test Details: Anticancer human tumor 926638-142-R-J1-PDC cell line growth inhibition [POLQ];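 further: spheroids exposed to drugs for one week before readout; percent viability relative to DMSO vehicle control wells set as 100%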
Protocol Conditions: second compound 0.0316 µM; first compound 1 µM; hits give low values
Property: viability, T/C (%)
Numbers only; they are read as %.

Molecule	Measurement Target	viability, T/C / %
CC1COCCN1c1cc(C2(S(C)(=N)=O)CC2)nc(-c2ccnc3[nH]ccc23)n1 (stereo unspecified) + Nc1ccc(C#CCN(C(=O)Cc2ncc(C(F)(F)F)cc2C(F)(F)F)c2ccc(F)cc2)nn1	926638-142-R-J1-PDC complex spheroid viability	82.3

Form: item Nc1ccn(C2OC(CO)C(O)C2(F)F)c(=O)n1 (stereo unspecified) + Nc1ccc(C#CCN(C(=O)Cc2ncc(C(F)(F)F)cc2C(F)(F)F)c2ccc(F)cc2)nn1 ; test system 926638-142-R-J1-PDC complex spheroid viability; viability, T/C: 52.7

Known value: 926638-142-R-J1-PDC complex spheroid viability viability, T/C of the molecule CNCc1ccc(-c2[nH]c3cc(F)cc4c3c2CCNC4=O)cc1 + Nc1ccc(C#CCN(C(=O)Cc2ncc(C(F)(F)F)cc2C(F)(F)F)c2ccc(F)cc2)nn1 equals 83.1

# value of viability, T/C, 926638-142-R-J1-PDC complex spheroid viability, item COc1cc2cc(C(=O)CCC(=O)O)sc2cc1OC + Cc1cccc(N(C)C(=O)C2C(O)CCN2c2nc(C)cc(C(F)(F)F)c2C#N)c1 = 96.2

Simply: CC(C)n1c(=O)n(C)c2cnc3cc(F)c(-c4ccc(OCCCN5CCCCC5)nc4)cc3c21 + Cc1cccc(N(C)C(=O)C2C(O)CCN2c2nc(C)cc(C(F)(F)F)c2C#N)c1 , 926638-142-R-J1-PDC complex spheroid viability, viability, T/C = 88.9

Tested on 926638-142-R-J1-PDC complex spheroid viability, the item O=c1[nH]cc(F)c(=O)[nH]1 + Nc1ccc(C#CCN(C(=O)Cc2ncc(C(F)(F)F)cc2C(F)(F)F)c2ccc(F)cc2)nn1 showed viability, T/C equal to 82.9

So the reported viability, T/C for C#Cc1c(F)ccc2cc(O)cc(-c3ncc4c(N5CC6CCC(C5)N6)nc(OCC56CCCN5CC(F)C6)nc4c3F)c12 (stereo unspecified) + Nc1ccc(C#CCN(C(=O)Cc2ncc(C(F)(F)F)cc2C(F)(F)F)c2ccc(F)cc2)nn1 , on 926638-142-R-J1-PDC complex spheroid viability, turned out to be 80.1

---

Tested on: 926638-142-R-J1-PDC complex spheroid viability
Test Details: Anticancer human tumor 926638-142-R-J1-PDC cell line growth inhibition [POLQ];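 further: spheroids exposed to drugs for one week before readout; percent viability relative to DMSO vehicle control wells set as 100%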
Protocol Conditions: second compound 0.316 µM; first compound 0.0316 µM; hits give low values
Property: viability, T/C (%)
Write the value in % as a bare number.

Example results:
Molecule	viability, T/C [%]
C=CCn1c(=O)c2cnc(Nc3ccc(N4CCN(C)CC4)cc3)nc2n1-c1cccc(C(C)(C)O)n1 + COC1C(OC(N)=O)C(O)C(Oc2ccc3c(O)c(NC(=O)c4ccc(O)c(CC=C(C)C)c4)c(=O)oc3c2C)OC1(C)C	78.3
CC(C)n1c(=O)n(C)c2cnc3cc(F)c(-c4ccc(OCCCN5CCCCC5)nc4)cc3c21 + Cc1cccc(N(C)C(=O)C2C(O)CCN2c2nc(C)cc(C(F)(F)F)c2C#N)c1	104

The reported 926638-142-R-J1-PDC complex spheroid viability viability, T/C of C=CCn1c(=O)c2cnc(Nc3ccc(N4CCN(C)CC4)cc3)nc2n1-c1cccc(C(C)(C)O)n1 + Nc1ccc(C#CCN(C(=O)Cc2ncc(C(F)(F)F)cc2C(F)(F)F)c2ccc(F)cc2)nn1 is 95
